Origin of measurements: patent US20110294728A1

# Target or system: HIV-1 integrase (HIV-1)
# Assay protocol: steady state fluorescence and anisotropy
Reported Kd values for the following binders.
Report only the number, with the unit nM understood.

Some entries whose results are on file:
-- ask Give the measured Kd of GCKWLTEWIPLTAEAEC (modifications not checked) [PAW-C2] .
-- reply 120

-- ask Give the measured Kd of KWLTEWIPLTAEAE (modifications not checked) [P26] .
-- reply 320

-- ask Give the measured Kd of CGTKWLTEVWPLC (modifications not checked) [P16C1] .
-- reply 90

-- ask Give the measured Kd of GTKWLTEVWPL (modifications not checked) [P16] .
-- reply 120

-- ask Give the measured Kd of CGTKWLTEWIPLTAEAEC (modifications not checked) [PAW-C1] .
-- reply 290

-- ask Give the measured Kd of GTKWLTEWIPL (modifications not checked) [P24] .
-- reply 350

Now examine the next entry.
-- ask Give the measured Kd of GTKWLTEWIPLTAEAE (modifications not checked) [PAW] .
-- reply 230
